TEST_NAME: qHTS of small molecules that selectively kill Giardia lamblia: Hit Validation in HepG2 cytotox;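 further: compound exposure lasted overnight at 37 deg C; nearly all actives have a fitted effect of over 55% in size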; further: potency means the concentration at half of the fitted maximal effect
ASSAY_CONDITIONS: cell viability; HepG2 cytotoxicity; series mostly up to 38.3 µM
Procedure: Giardia lamblia is a human pathogen afflicting impoverished nations, and the most common cause of outbreaks of diarrhea in the United States. Giardia has been classified by the CDC as a category B bioterrorism organism. […] 4 uL of HepG2 cells ae dispensed into white 1536-well plates. […] 2 uL of ATPLite is added and the plates are incubated for 15 min at room temperature before they are read on the ViewLux for luminiescence.
Among all 1,300 compounds or so, about 150 (12%) were called active. Not shown: some 30% with an inconclusive outcome. Shown is part of a subset that was picked to be rich in actives.
QUANTITY_KIND: Potency

- MOLECULE: "CC(C)c1ccc(N=Nc2c(O)[nH]c(=O)[nH]c2=O)cc1"
  Potency: "inactive"
- MOLECULE: "CC(C)(O)C1C2OC(=O)C1C1(O)CC3OC34C(=O)OC2C14C (stereo unspecified)"
  Potency: "inactive"
- MOLECULE: "O=c1c2ccccc2nc(/C=C/c2ccc(O)cc2)n1-c1cccc(O)c1"
  Potency: "inactive"
- MOLECULE: "CN(c1ccccc1)c1ccc([N+](=O)[O-])c2nonc12"
  Potency: "inactive"

Value sought for every listed molecule: Potency.
1. C=CC1CN2CCC1CC2[C@@H](OC(=O)c1ccc(OC)cc1)c1ccnc2ccccc12 (stereo partly specified)
2. O=[N+]([O-])c1cc([As](=O)(O)O)ccc1O
3. c1ccc2c(c1)[IH]c1ccccc1-2
4. C[C@H]1C[C@@H](C)C(=O)[C@@H]([C@H](O)CC2CC(=O)NC(=O)C2)C1
5. NC(=O)c1cc(N2CC2)c([N+](=O)[O-])cc1[N+](=O)[O-]
6. CCn1nc(/C=C/c2ccccc2)nc2c(=O)n(C)c(=O)nc1-2
7. NN=C(N)N

Given back:
["inactive", "inactive", "0.0927 µM (active)", "inactive", "inactive", "6.56 µM (active)", "inactive"]

###

TEST_NAME: qHTS of small molecules that selectively kill Giardia lamblia: Hit Validation in HepG2 cytotox;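 further: compound exposure lasted overnight at 37 deg C; nearly all actives have a fitted effect of over 55% in size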
ASSAY_CONDITIONS: cell viability; HepG2 cytotoxicity; series mostly up to 38.3 µM
Out of some 1,300 compounds screened, about 150 (12%) were called active. Not shown: some 30% with an inconclusive outcome. Calls come from the whole dose curve; as a rule, active = well fitted cell-killing curve with a large enough effect; inconclusive = small, poorly fitted or top-dose-only effect, or effect the other way; inactive = flat fitted curve, though single readings scatter. This is one part of a sample in which actives are shown more often than they occur.
Mark one answer only. Choices: active, inactive

- MOLECULE: "c1ccc2c(c1)[I+]c1ccccc1-2"
  GROUP: "active"

Asked: What outcome does the record of this test show for CC1CC(C)CC(C)C(O)C(C#N)=CC=CCC(C2CCCC2C(=O)O)OC(=O)CC(O)C(C)C1 (stereo unspecified) ?
Given back: active

Asked: What outcome does the record of this test show for CC1=C(N2CC2)C(=O)C(CO)=C(N2CC2)C1=O ?
Given back: active

Asked: What outcome does the record of this test show for Fc1ccc(C2NCCc3[nH]cnc32)cc1 (stereo unspecified) ?
Given back: inactive

Asked: What outcome does the record of this test show for COC(COC(N)=O)C1=C(N2CC2)C(=O)C(C)=C(N2CC2)C1=O (stereo unspecified) ?
Given back: active

Asked: What outcome does the record of this test show for O=[N+]([O-])c1ccc(-c2ccccc2)c([As](=O)(O)O)c1 ?
Given back: inactive
